Reported values: pIC50 for Dihydrofolate reductase (Rattus norvegicus), one per item.
To interpret pIC50, take it as minus log10 of a concentration measured in moles per litre.

Solved cases below.
>  <Smiles Input>
COc1cc(CNc2ccc3nc(N)nc(N)c3c2)cc(OC)c1

>  <pIC50>
6.08

$$$$
>  <Smiles Input>
COc1cc(OC)c(CNc2ccc3nc(N)nc(N)c3c2)c(OC)c1

>  <pIC50>
4.64

$$$$
>  <Smiles Input>
CN(Cc1cccc2c1CCCC2)c1ccc2nc(N)nc(N)c2c1

>  <pIC50>
7.77

$$$$
>  <Smiles Input>
COc1cc(OC)c(OC)cc1CNc1ccc2nc(N)nc(N)c2c1

>  <pIC50>
5.80

$$$$
>  <Smiles Input>
COc1ccc(CN(C)c2ccc3nc(N)nc(N)c3c2)c(OC)c1

>  <pIC50>
7.37

$$$$
>  <Smiles Input>
COc1ccc(OC)c(CNc2ccc3nc(N)nc(N)c3c2)c1

>  <pIC50>
5.96

$$$$

## Task Dihydrofolate reductase (Rattus norvegicus) / pIC50 / COc1cc(CN(C)c2ccc3nc(N)nc(N)c3c2)cc(OC)c1 : value?
## Result 8.09

## Task Short answer please: pIC50, Dihydrofolate reductase (Rattus norvegicus), entry COc1cc(CNc2ccc3nc(N)nc(N)c3c2)cc(OC)c1OC
## Result 6.05

* * *

Known IC50 of a selection of molecules
Study Target: Bifunctional dihydrofolate reductase-thymidylate synthase (Toxoplasma gondii, UniProt Q07422)
Sequence (Q07422 whole entry): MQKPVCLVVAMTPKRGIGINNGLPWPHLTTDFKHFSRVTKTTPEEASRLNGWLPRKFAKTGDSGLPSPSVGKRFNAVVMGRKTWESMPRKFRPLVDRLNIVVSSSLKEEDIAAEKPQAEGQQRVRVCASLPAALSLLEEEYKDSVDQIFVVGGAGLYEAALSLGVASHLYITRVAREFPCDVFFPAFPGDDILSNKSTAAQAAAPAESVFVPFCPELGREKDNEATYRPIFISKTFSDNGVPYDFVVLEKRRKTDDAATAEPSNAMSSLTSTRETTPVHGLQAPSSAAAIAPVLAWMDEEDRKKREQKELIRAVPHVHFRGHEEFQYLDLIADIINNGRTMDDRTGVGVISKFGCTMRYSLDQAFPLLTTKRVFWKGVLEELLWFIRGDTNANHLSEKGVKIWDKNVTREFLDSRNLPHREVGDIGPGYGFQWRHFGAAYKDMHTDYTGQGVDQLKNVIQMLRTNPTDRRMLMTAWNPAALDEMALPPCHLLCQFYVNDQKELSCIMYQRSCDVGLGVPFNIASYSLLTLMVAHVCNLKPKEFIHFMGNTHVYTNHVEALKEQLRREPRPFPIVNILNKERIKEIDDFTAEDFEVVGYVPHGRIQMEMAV
Give just the number in nM; leave the unit off.

>  <Smiles Input>
COc1ccc(CN(C)c2ccc3nc(N)nc(N)c3c2)c(OC)c1

>  <Quantitative Readout>
39

$$$$
>  <Smiles Input>
Nc1nc(N)c2cc(NCc3ccccc3)ccc2n1

>  <Quantitative Readout>
320

$$$$
>  <Smiles Input>
COc1cc(CNc2cnc3nc(N)nc(N)c3c2)cc(OC)c1OC

>  <Quantitative Readout>
395

$$$$
>  <Smiles Input>
COc1cc(CNc2ccc3nc(N)nc(N)c3c2)cc(OC)c1OC

>  <Quantitative Readout>
84

$$$$
>  <Smiles Input>
COc1cc(OC)c(OC)cc1CNc1ccc2nc(N)nc(N)c2c1

>  <Quantitative Readout>
124

$$$$
>  <Smiles Input>
COc1ccc(CNc2ccc3nc(N)nc(N)c3c2)c(OC)c1OC

>  <Quantitative Readout>
190

$$$$
>  <Smiles Input>
COc1ccc(CN(C)c2ccc3nc(N)nc(N)c3c2)c(OC)c1OC

>  <Quantitative Readout>
17

$$$$
>  <Smiles Input>
COc1ccc(OC)c(CNc2ccc3nc(N)nc(N)c3c2)c1

>  <Quantitative Readout>
160

$$$$

## Task Dear colleague, I am looking for the recorded IC50 of the following molecule: COc1ccc(OC)c(CN(C)c2ccc3nc(N)nc(N)c3c2)c1
## Result 30

## Task Reported IC50 for COc1cc(CN(C)c2ccc3nc(N)nc(N)c3c2)cc(OC)c1 : what is it?
## Result 9.3

## Task Which IC50 is reported for this molecule? COc1cc(CNc2ccc3nc(N)nc(N)c3c2)cc(OC)c1
## Result 120

## Task Which value of IC50 has been reported for COc1ccc(CNc2ccc3nc(N)nc(N)c3c2)c(OC)c1 in the records?
## Result 170
